Test system: 596521-263-R-J1-PDC complex spheroid growth
Assay: Anticancer human tumor 596521-263-R-J1-PDC patient-derived soft tissue sarcoma cell line growth inhibition [Asc]
Settings: second compound 3.16 µM; first compound 0.0316 µM; hits give low values
Measured viability, T/C of individual entries
Reply with just the number (in %).

# compound, target_of_assay, viability, T/C, %
data = [
    ("Cn1ncnc1[C@H]1c2n[nH]c(=O)c3cc(F)cc(c23)N[C@@H]1c1ccc(F)cc1 + Cc1c(S(C)(=O)=O)c(-c2cc(F)cc(N3CCN(c4ccc(NS(=O)(=O)c5ccc(NC(CCN6CCC(C(=O)OCCCP(=O)(O)O)CC6)CSc6ccccc6)c(S(=O)(=O)C(F)(F)F)c5)cc4)CC3)c2)c(-c2ccc(Cl)cc2)n1C(C)C", "596521-263-R-J1-PDC complex spheroid growth", 52.6),
]

For NC1CCC(NC2CC2c2ccccc2)CC1 (stereo not drawn) + Cc1c(S(C)(=O)=O)c(-c2cc(F)cc(N3CCN(c4ccc(NS(=O)(=O)c5ccc(NC(CCN6CCC(C(=O)OCCCP(=O)(O)O)CC6)CSc6ccccc6)c(S(=O)(=O)C(F)(F)F)c5)cc4)CC3)c2)c(-c2ccc(Cl)cc2)n1C(C)C , what is its reported viability, T/C?
55.4

GET /values?readout=viability, T/C&item= O=C(c1cc(Cc2n[nH]c(=O)c3ccccc23)ccc1F)N1CCN(C(=O)C2CC2)CC1 + Cc1c(S(C)(=O)=O)c(-c2cc(F)cc(N3CCN(c4ccc(NS(=O)(=O)c5ccc(NC(CCN6CCC(C(=O)OCCCP(=O)(O)O)CC6)CSc6ccccc6)c(S(=O)(=O)C(F)(F)F)c5)cc4)CC3)c2)c(-c2ccc(Cl)cc2)n1C(C)C
61

====

Tested on: 596521-263-R-J1-PDC complex spheroid growth
Assay: Anticancer human tumor 596521-263-R-J1-PDC cell line growth inhibition [Asc];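 note: spheroids exposed to compounds for 7 days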
Conditions: second compound 3.16 µM; first compound 0.1 µM; hits give low values
Recorded viability, T/C for the following compounds
Give the quantity in %, number only.

# compound, reading_unit, viability, T/C
records = [
    ("NC1CCC(NC2CC2c2ccccc2)CC1 (stereo unspecified) + Cc1c(S(C)(=O)=O)c(-c2cc(F)cc(N3CCN(c4ccc(NS(=O)(=O)c5ccc(NC(CCN6CCC(C(=O)OCCCP(=O)(O)O)CC6)CSc6ccccc6)c(S(=O)(=O)C(F)(F)F)c5)cc4)CC3)c2)c(-c2ccc(Cl)cc2)n1C(C)C", "%", 53.4),
    ("CNC(C)C(=O)NC1CN(S(=O)(=O)c2cccc(S(=O)(=O)N3CCC4CCC(C(=O)NC(c5ccccc5)c5ccccc5)N4C(=O)C(NC(=O)C(C)NC)C3)c2)CCC2CCC(C(=O)NC(c3ccccc3)c3ccccc3)N2C1=O (stereo unspecified) + Cc1c(S(C)(=O)=O)c(-c2cc(F)cc(N3CCN(c4ccc(NS(=O)(=O)c5ccc(NC(CCN6CCC(C(=O)OCCCP(=O)(O)O)CC6)CSc6ccccc6)c(S(=O)(=O)C(F)(F)F)c5)cc4)CC3)c2)c(-c2ccc(Cl)cc2)n1C(C)C", "%", 42.4),
    ("C#Cc1c(F)ccc2cc(O)cc(-c3ncc4c(N5CC6CCC(C5)N6)nc(OCC56CCCN5CC(F)C6)nc4c3F)c12 (stereo unspecified) + Cc1c(S(C)(=O)=O)c(-c2cc(F)cc(N3CCN(c4ccc(NS(=O)(=O)c5ccc(NC(CCN6CCC(C(=O)OCCCP(=O)(O)O)CC6)CSc6ccccc6)c(S(=O)(=O)C(F)(F)F)c5)cc4)CC3)c2)c(-c2ccc(Cl)cc2)n1C(C)C", "%", 65.3),
    ("COc1c(OCCCN2CCOCC2)ccc2c3n(c(=NC(=O)c4cnc(N)nc4)nc12)CCN3 + Cc1c(S(C)(=O)=O)c(-c2cc(F)cc(N3CCN(c4ccc(NS(=O)(=O)c5ccc(NC(CCN6CCC(C(=O)OCCCP(=O)(O)O)CC6)CSc6ccccc6)c(S(=O)(=O)C(F)(F)F)c5)cc4)CC3)c2)c(-c2ccc(Cl)cc2)n1C(C)C", "%", 43.1),
]

Lookup: viability, T/C / 596521-263-R-J1-PDC complex spheroid growth / O=C(c1ccc(F)c(F)c1Nc1ccc(I)cc1F)N1CC(O)([C@@H]2CCCCN2)C1 + Cc1c(S(C)(=O)=O)c(-c2cc(F)cc(N3CCN(c4ccc(NS(=O)(=O)c5ccc(NC(CCN6CCC(C(=O)OCCCP(=O)(O)O)CC6)CSc6ccccc6)c(S(=O)(=O)C(F)(F)F)c5)cc4)CC3)c2)c(-c2ccc(Cl)cc2)n1C(C)C
55.8

// fetch 596521-263-R-J1-PDC complex spheroid growth viability, T/C for O=C(c1cc(Cc2n[nH]c(=O)c3ccccc23)ccc1F)N1CCN(C(=O)C2CC2)CC1 + Cc1c(S(C)(=O)=O)c(-c2cc(F)cc(N3CCN(c4ccc(NS(=O)(=O)c5ccc(NC(CCN6CCC(C(=O)OCCCP(=O)(O)O)CC6)CSc6ccccc6)c(S(=O)(=O)C(F)(F)F)c5)cc4)CC3)c2)c(-c2ccc(Cl)cc2)n1C(C)C
63.8
